# Body weight after dieting per record follows
Tested on: obesity induced by high fat diet
Test: Body weight and food consumption of rats on high fat diet, 8 weeks of dieting
Assay type: in vivo, Sprague-Dawley white male rat
Conditions: after 8 weeks; high fat diet + 0.2% of each substance in diet; n = 12
The answer is to be given in g; state only the numeric part.

Some solved entries appear below for comparison.
{"compound": "C[N+](C)(C)CC(O)CC(=O)[O-] [L-carnitine]", "testReadout": "Body weight after dieting", "experimentalResult": 465.1}
{"compound": "O=c1c(-c2ccc(O)cc2)coc2cc(O)ccc12 [diadzein]", "testReadout": "Body weight after dieting", "experimentalResult": 441.3}
{"compound": "COc1cc2c(=O)c(-c3ccc(O)cc3)coc2cc1O [glycitein]", "testReadout": "Body weight after dieting", "experimentalResult": 446.4}

Attention now turns to another entry.
// recorded Body weight after dieting for O=c1c(-c2ccc(O)cc2)coc2cc(O)cc(O)c12 [genistein] : 433.5

###

System: obesity induced by high fat diet
Test: Weight of epididymal adipose tissue of rats after 8 weeks of high fat diet
Assay type: in vivo, Sprague-Dawley white male rat
Settings: words; 0.2% in high fat diet, 8 weeks
testReadout: weight of epididymal adipose compared with control group with high fat diet

{"compound": "O=c1c(-c2ccc(O)cc2)coc2cc(O)cc(O)c12 [genistein]", "experimentalTarget": "obesity induced by high fat diet", "experimentalResult": "small"}
{"compound": "COc1cc2c(=O)c(-c3ccc(O)cc3)coc2cc1O [glycitein]", "experimentalTarget": "obesity induced by high fat diet", "experimentalResult": "also small"}
{"compound": "O=c1c(-c2ccc(O)cc2)coc2cc(O)ccc12 [diadzein]", "experimentalTarget": "obesity induced by high fat diet", "experimentalResult": "also small"}
